Reference source: ChEMBL document CHEMBL1154881

- Test system: Trichophyton mentagrophytes
- procedureText: Antifungal activity against Trichophyton mentagrophytes after 3 to 4 days by serial plate dilution method
- Format: functional
Please respond with reported inhibition zone (IZ) for every item in the list.
One number for each entry, in mm.

# count of solved cases: 3
{"columns": ["molSmiles", "testSystem", "testValue"],
 "data": [
  ["O=C1CCN(C(=O)c2cc(-c3ccc(Cl)cc3)n(-c3ccc(F)cc3)n2)CC1", "Trichophyton mentagrophytes", 24],
  ["CCNC(=O)N1CCN(C(=O)c2cc(-c3ccc(Cl)cc3)n(-c3ccc(F)cc3)n2)CC1", "Trichophyton mentagrophytes", 24],
  ["CCCCCC(=O)N1CCN(C(=O)c2cc(-c3ccc(Cl)cc3)n(-c3ccc(F)cc3)n2)CC1", "Trichophyton mentagrophytes", 20]
]}

Please find the next compound below.
Which measured inhibition zone (IZ) value corresponds to O=C(c1cc(-c2ccc(Cl)cc2)n(-c2ccc(F)cc2)n1)N1CCC(O)CC1 ? 26

====

- System: Klebsiella pneumoniae
- procedureText: Antibacterial activity against Klebsiella pneumoniae after 24 hrs by disk diffusion method; further: test concentration or dose not given here
- Type: functional
Hi there, I'd appreciate the recorded inhibition zone (IZ) for every entry that follows.
Numbers only, in mm.

{"columns": ["molSmiles", "unitsLabel", "inhibition zone (IZ)"],
 "data": [
  ["CCNC(=O)N1CCN(C(=O)c2cc(-c3ccc(Cl)cc3)n(-c3ccc(F)cc3)n2)CC1", "mm", 17],
  ["O=C(c1cc(-c2ccc(Cl)cc2)n(-c2ccc(F)cc2)n1)N1CCN(C(=O)C2CC2)CC1", "mm", 19],
  ["O=C(O)c1cn(C2CC2)c2cc(N3CCNCC3)c(F)cc2c1=O", "mm", 24]
]}

Please find the next compound below.
So what's the measured inhibition zone (IZ) for this one? N#Cc1ccc(-c2csc(-c3cc(-c4ccc(Cl)cc4)n(-c4ccc(F)cc4)n3)n2)cc1 17

====

- Test system: Klebsiella pneumoniae
- procedureText: Antibacterial activity against Klebsiella pneumoniae after 24 hrs by disk diffusion method; further: test concentration or dose not given here
- Type: functional
quantityMeasured: inhibition zone (IZ) (mm)
Numbers only, in mm.

{"columns": ["molSmiles", "unitsLabel", "testValue"],
 "data": [
  ["O=C1CCN(C(=O)c2cc(-c3ccc(Cl)cc3)n(-c3ccc(F)cc3)n2)CC1", "mm", 25],
  ["Cc1nc(-c2cc(-c3ccc(Cl)cc3)n(-c3ccc(F)cc3)n2)sc1C(=O)NN", "mm", 19],
  ["Cc1nc(-c2cc(-c3ccc(Cl)cc3)n(-c3ccc(F)cc3)n2)sc1C(=O)NNC(=O)NC(=O)c1ccc(C(F)(F)F)cc1", "mm", 19],
  ["C#CCN1CCN(C(=O)c2cc(-c3ccc(Cl)cc3)n(-c3ccc(F)cc3)n2)CC1", "mm", 17]
]}

Go through the list and state inhibition zone (IZ) for each entry.
1. N#Cc1ccc(NC(=O)N2CCN(C(=O)c3cc(-c4ccc(Cl)cc4)n(-c4ccc(F)cc4)n3)CC2)cc1
2. O=C(c1cc(-c2ccc(Cl)cc2)n(-c2ccc(F)cc2)n1)N1CCNCC1

19
19

====

- System: Pseudomonas aeruginosa
- procedureText: Antibacterial activity against Pseudomonas aeruginosa ATTC 27853 after 24 hrs by disk diffusion method; further: test concentration or dose not given here
- Assay type: functional
Please provide measured inhibition zone (IZ) for the entries that follow.

Solved entries:
{"columns": ["compound", "inhibition zone (IZ)"],
 "data": [
  ["Cc1nc(-c2cc(-c3ccc(Cl)cc3)n(-c3ccc(F)cc3)n2)sc1C(=O)NN", "19 mm"],
  ["N#Cc1ccc(NC(=O)N2CCN(C(=O)c3cc(-c4ccc(Cl)cc4)n(-c4ccc(F)cc4)n3)CC2)cc1", "<10 mm"],
  ["Cc1nc(NC(=O)c2cc(-c3ccc(Cl)cc3)n(-c3ccc(F)cc3)n2)sc1C(=O)O", "<10 mm"],
  ["CCNC(=O)N1CCN(C(=O)c2cc(-c3ccc(Cl)cc3)n(-c3ccc(F)cc3)n2)CC1", "<10 mm"],
  ["CCOC(=O)c1sc(NC(=O)c2cc(-c3ccc(Cl)cc3)n(-c3ccc(F)cc3)n2)nc1C", "<10 mm"]
]}

# batch size: 5; output inhibition zone (IZ) per entry
1. Cc1nc(-c2cc(-c3ccc(Cl)cc3)n(-c3ccc(F)cc3)n2)sc1C(=O)NNC(=S)NC(=O)c1ccccc1
2. CS(=O)(=O)OC1CCN(C(=O)c2cc(-c3ccc(Cl)cc3)n(-c3ccc(F)cc3)n2)CC1
3. Fc1ccc(-n2nc(-c3nc(-c4ccc(Cl)cc4)cs3)cc2-c2ccc(Cl)cc2)cc1
4. O=C(Nc1ccc(Cl)nc1)c1cc(-c2ccc(Cl)cc2)n(-c2ccc(F)cc2)n1
5. C#CCN1CCN(C(=O)c2cc(-c3ccc(Cl)cc3)n(-c3ccc(F)cc3)n2)CC1

["<10 mm", "21 mm", "16 mm", "<10 mm", "<10 mm"]
